Source listed as ChEMBL document CHEMBL1255234.

The following compounds are shown together with reported t1/2 values.
- System: Staphylococcus aureus
- MEASUREMENT_DESCRIPTION: Half life in methicillin-resistant Staphylococcus aureus WB2 at 1 g administered every 12 hrs for 4 days in in vitro pharmacokinetic-pharmacodynamic model with simulated endocardial vegetations
- Format: ADME, organism-based
- CONDITION_SET: in vivo
Express it in h; write the number only.

# COMPOUND, EXPERIMENTAL_SYSTEM, t1/2 (h)
measured = [
    ("CN[C@H](CC(C)C)C(=O)N[C@H]1C(=O)N[C@@H](CC(N)=O)C(=O)N[C@H]2C(=O)N[C@H]3C(=O)N[C@H](C(=O)N[C@H](C(=O)O)c4cc(O)cc(O)c4-c4cc3ccc4O)[C@H](O)c3ccc(c(Cl)c3)Oc3cc2cc(c3O[C@@H]2O[C@H](CO)[C@@H](O)[C@H](O)[C@H]2O[C@H]2C[C@](C)(N)[C@H](O)[C@H](C)O2)Oc2ccc(cc2Cl)[C@H]1O [VANCOMYCIN]", "Staphylococcus aureus", 5.3),
]

Now look at this entry.
The reported value for `CCCCCCCCCC(=O)N[C@@H](Cc1c[nH]c2ccccc12)C(=O)N[C@H](CC(N)=O)C(=O)N[C@@H](CC(=O)O)C(=O)N[C@@H]1C(=O)NCC(=O)N[C@@H](CCCN)C(=O)N[C@@H](CC(=O)O)C(=O)N[C@H](C)C(=O)N[C@@H](CC(=O)O)C(=O)NCC(=O)N[C@H](CO)C(=O)N[C@@H]([C@H](C)CC(=O)O)C(=O)N[C@@H](CC(=O)c2ccccc2N)C(=O)O[C@@H]1C` in terms of t1/2 is 5.3
